# procedure_text: NCI Yeast Anticancer Drug Screen. Data for the rad50 strain (AID 155);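 note: 0% = growth of vehicle-only cultures of the same strain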
# recorded_conditions: S. cerevisiae rad50 strain growth inhibition; at 50.0 µM; hits give high values
# Procedure: Growth inhibition of yeast strains with defined genetic alterations is measured as a screen for potential anti-cancer activity. Selected strains with alterations in DNA damage repair or cell cycle control were exposed to compounds and growth inhibition was measured relative to vehicle treated controls. The strain used in this assay is rad50
Compounds without any hit were thinned out: in the full panel of roughly 79,000, 15% have a hit.
Classification field: rule met = growth inhibition at or over 60%; rule not met = growth inhibition under 60%.

- CN(C)c1ccc(SC(=S)NCc2ccccc2)cc1: rule met
- CCC1=C(c2ccccc2)C(O)(c2ccccc2)C(CC)C1=O (stereo unspecified): rule met

Prompt: Could you please find out whether CC1(C(=O)O)CCC2(C)CCC3(C)C(=CC(=O)C4C5(C)CCC(O)C(C)(C)C5CCC43C)C2C1 (stereo unspecified) has growth inhibition that meets 60% or exceeds it?
Response: rule not met

Prompt: Could you please find out whether `Cc1ccc(C(=O)OCCN2CCOCC2)c([N+](=O)[O-])c1OCc1ccccc1` has growth inhibition that meets 60% or exceeds it?
Response: rule met

Prompt: Could you please find out whether `CCN(C(C)=O)c1ccc2c(c1)Cc1ccccc1-2` has growth inhibition that meets 60% or exceeds it?
Response: rule met

Prompt: Could you please find out whether `O=C1C=CC(=Nc2ccc(O)c3ncccc23)c2cccnc21` has growth inhibition that meets 60% or exceeds it?
Response: rule met

---

# procedure_text: NCI Yeast Anticancer Drug Screen. Data for the rad50 strain (AID 155);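 note: 0% = growth of vehicle-only cultures of the same strain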
# recorded_conditions: S. cerevisiae rad50 strain growth inhibition; at 50.0 µM; hits give high values
# Experimental: Growth inhibition of yeast strains with defined genetic alterations is measured as a screen for potential anti-cancer activity. Selected strains with alterations in DNA damage repair or cell cycle control were exposed to compounds and growth inhibition was measured relative to vehicle treated controls. The strain used in this assay is rad50
This is part of a sample that, as a whole, favours compounds with a hit. Of some 79,000 tested, about 15% had one in any assay.
readout: growth inhibition (%)
One number for each entry, in %.

The examples below pair each entry with its known result.
• CC(C)c1cc2c(cc1O)C[C@@]1(O)CCCC(C)(C)C1CC2 (stereo not given in full) = 90.6
• COC(=O)/C=C(\C)Nc1ccc(Cc2ccc(Cl)cc2)cc1 = 98.3
• CCCC(/C=N/N=C(N)N)=N\N=C(N)N = -24.1
• O=C1O/C(=C(\Cc2ccccc2)c2ccccc2)N(c2ccccc2)C1=O = 69.2
• CC(=O)N(C)c1ccc(/C=C2\C=Cc3ccccc32)cc1 = 41.2
• O=C1/C(=C\c2ccc([N+](=O)[O-])o2)Oc2cc(O)ccc21 = 95.2

I need growth inhibition for every entry listed below, if you could help.
1. C=CCN1CCC(OC(=O)C(O)(/C=C\CC)C2CCCC2)CC1 (stereo not given)
2. OCCN1CCN(CCCN2c3cc(Cl)ccc3Sc3ccsc32)CC1
3. Oc1cc(CNCc2ccccc2)c(O)c(CNCc2ccccc2)c1
4. Cc1cc(Cl)c2cc(Cc3ccc(Br)cc3)ccc2n1
5. Oc1ccc2ccccc2c1.[Cu+2]

Response:
1: 68.8; 2: 98.5; 3: -4; 4: 16.5; 5: 98

I need growth inhibition for every entry listed below, if you could help.
1. O=c1c2ccccc2sc2cccc(NCCCN3CCN(CCCNc4cccc5sc6ccccc6c(=O)c45)CC3)c12
2. O=S(=O)(c1ccccc1)C1CN=NC1c1ccccc1 (stereo not given)
3. CCCCCCCCCC1OCC(C)O1 (stereo not given)
4. O=C1c2cc([N+](=O)[O-])cc3cc([N+](=O)[O-])cc(c23)C(=O)N1CCCNCCNCCCN1C(=O)c2cc([N+](=O)[O-])cc3cc([N+](=O)[O-])cc(c23)C1=O
5. CCCCN(CCO)CCNc1ccc(C)c2sc3ccccc3c(=O)c12
6. CC(=O)N(C)NC(=O)c1ccccc1
7. COc1cccc(C(c2cc3c(cc2O)OCO3)N2CCCC2)c1O (stereo not given)
8. Nc1nc(Cl)cc(Nc2ccc(Cl)c(Cl)c2)n1

Response:
[28.4, 84.2, 53, 61, 99.7, 10.4, 48.2, 72.8]

I need growth inhibition for every entry listed below, if you could help.
1. CC(=O)N(C)c1ccc2c(c1)Cc1ccccc1-2
2. OCC1CC[N-]CC1.OCC1CC[N-]CC1.[Cl][Pt+2]([Cl])([Cl])[Cl]
3. CCCCCCCCCCCCCCCCSC(=NC)NC

Response:
1. 42.6
2. 98.4
3. 99.4

I need growth inhibition for every entry listed below, if you could help.
1. O=C(/C=C/c1cc(O)c(O)cc1O)OCCc1ccccc1
2. CSc1cc2c(cc1N)Cc1cc(F)ccc1-2
3. COc1ccc(N=Cc2ccccc2O)cc1

Response:
[47.1, 98.3, 8.1]

---

# procedure_text: NCI Yeast Anticancer Drug Screen. Data for the cln2 rad14 strain (AID 165);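 note: 0% = growth equal to vehicle treated cultures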
# recorded_conditions: S. cerevisiae cln2 rad14 strain, at 5.0 µM (retest, dose inferred, filed as 0.5), hits give high values
# Protocol: Growth inhibition of yeast strains with defined genetic alterations is measured as a screen for potential anti-cancer activity. Selected strains with alterations in DNA damage repair or cell cycle control were exposed to compounds and growth inhibition was measured relative to vehicle treated controls. The strain used in this assay is cln2 rad14
The panel holds about 79,000 compounds, 15% with a hit somewhere; the sample as a whole holds those more often.
Would you kindly list growth inhibition for each of these molecules?
One number for each entry, in %.

The examples below pair each entry with its known result.
• O=[N+]([O-])c1ccc2c(c1)/C(=C/c1ccc(O)cc1)c1ccccc1-2 = -2
• CC1=C(Br)S(=O)(=O)N(c2ccccc2)C(CBr)=C1Br = 26
• CCCCCC(C)NCC(O)Cc1ccc(OCCCC)cc1 (configuration not stated) = 34
• COc1ccccc1Nc1nc(SC)ncc1SC = -8
• COC(=O)CC1SC(=S)N(Cc2ccc(Cl)cc2)C1=O (configuration not stated) = -59
• O=C(O)C(O)C(O)C(O)C(O)CO.[Ag] (configuration not stated) = 99
• COc1cccc(C(c2cc3c(cc2O)OCO3)N2CCCC2)c1O (configuration not stated) = -6
• CC(C)OC(=O)C1C=CCc2c(O)ccc(O)c21 (configuration not stated) = 7

I need growth inhibition for every entry listed below, if you could help.
1. O=C(O)/C=C/c1ccc(Cl)cc1Cl
2. COC(=O)c1ccc(OCCC(=O)CCl)cc1
3. CC(=O)C(C(=N)C#N)C(=O)Nc1ccccc1 (configuration not stated)
4. CCN(CC)C(=O)N1CCN(c2cccc(Cl)c2)CC1
5. O=C1c2cccc(O)c2C(=O)c2c(O)cc(CO)cc21
6. CC(C)n1nnc2ccccc2c1=Nc1ccccc1
7. O=S(=O)(SCc1ccccc1)C(c1ccccc1)c1ccccc1
8. Oc1ccc(COCCBr)c2cccnc12

Response:
1. 1
2. 4
3. -14
4. 1
5. 23
6. 6
7. 5
8. 8

I need growth inhibition for every entry listed below, if you could help.
1. O=C(/C=C\c1ccc(Cl)c(Cl)c1)c1cccs1
2. O=C1CSC(=S)N1/N=C/c1ccc(Cl)c([N+](=O)[O-])c1
3. CC1=CC(C)C(C)N(CCNC(=O)Nc2ccccc2)c2ccccc21 (configuration not stated)
4. CN/N=C(\C)C(CN1CCCCC1)C(C1=C(O)c2ccccc2OC1)c1ccccc1 (configuration not stated)

Response:
1. -6
2. -16
3. 22
4. -1

I need growth inhibition for every entry listed below, if you could help.
1. CC/C(=C(/CC)c1ccc([O-])cc1)c1ccc([O-])cc1.CC/C(=C(\CC)c1ccc([O-])cc1)c1ccc([O-])cc1.O=C([CH-]C(=O)c1ccccc1)c1ccccc1.O=C([CH-]C(=O)c1ccccc1)c1ccccc1.O=C([CH-]C(=O)c1ccccc1)c1ccccc1.O=C([CH-]C(=O)c1ccccc1)c1ccccc1.[Ti+4].[Ti+4]
2. CN(C)c1nc(N(C)C)nc([N+](C)(C)C)n1

Response:
94
-3

---

# procedure_text: NCI Yeast Anticancer Drug Screen. Data for the bub3 strain (AID 167)
# recorded_conditions: S. cerevisiae bub3 mutant strain, at 50.0 µM (retest, dose inferred, filed as 5.0), hits give high values
This is part of a sample that, as a whole, favours compounds with a hit. Of some 79,000 tested, about 15% had one in any assay. Activity calls are given as the source filed them. Rule as the data show it: active = growth inhibition above about 70%; inactive = the rest.
readout: growth inhibition

The examples below pair each entry with its known result.
- COc1cccc(/C=C/C(C)=O)c1OC: -1% (inactive)
- Cc1cccc(NC(=S)N/N=C(/c2ccccc2)c2ccccn2)c1: 93% (active)
- CC1OC(C)C(O)C2=C1C(=O)c1ccccc1C2=O (configuration not stated): 87% (active)
- COc1ccc(CC/C(=N/O)c2ccccc2)cc1: 90% (active)
- COc1cc(/C=C/C(=O)Sc2ccccc2)cc(OC)c1O: 70% (active)
- FC(F)(F)c1nc(SCc2ccc(Cl)cc2)n[nH]1: 0% (inactive)
- COC(=O)/C=C(\C)Nc1ccc(Cc2ccc(Cl)cc2)cc1: 98% (active)
- Oc1cccc2ccc(/C=C/c3ccccn3)nc12: 98% (active)

I need growth inhibition for every entry listed below, if you could help.
1. CCC(C)(O)C#Cc1ccc(C)nc1 (configuration not stated)
2. COC1=CC23C=CC1[C@@H](c1ccccc1)C2=C(C)C(=O)N3C(=O)NC1CCCCC1 (some centres not stated)
3. Nc1c(Cl)[nH]c(C(F)(F)F)nc1=S
4. CN(C)C(=O)c1cc(Cl)cc(-c2ccccc2)c1O

Response:
["-1% (inactive)", "-8% (inactive)", "10% (inactive)", "86% (active)"]

The reported measurements were obtained from PubChem BioAssay (NCI).
